Let's look at some binders and their measured CD28 scFv signal.
Target: T1, anti-CD28 scFv (VH - linker 1 - VL) (biotinylated (site not given))
T1 construct: Biotinylated scFv captured on neutravidin coated plates in the panning ELISA
T1 sequence (scFv, as listed by the source): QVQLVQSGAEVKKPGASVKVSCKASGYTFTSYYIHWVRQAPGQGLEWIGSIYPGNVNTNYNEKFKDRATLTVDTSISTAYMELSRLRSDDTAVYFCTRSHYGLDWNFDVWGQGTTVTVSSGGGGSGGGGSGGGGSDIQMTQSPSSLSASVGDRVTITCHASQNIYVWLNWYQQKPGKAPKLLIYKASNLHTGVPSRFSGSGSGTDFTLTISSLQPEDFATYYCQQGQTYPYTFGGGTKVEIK
Assay: phage ELISA; biotinylated anti-CD28 scFv on neutravidin plate, clonal phage supernatant, anti-M13 HRP
Where no end group is shown, it is not given here.
Returns: the value as a bare number; no unit string appended.

MDWCPRYLWNMCFH (cysteine pairing not given here; also: displayed on phage as fusion to pIII, linker not given here) [Phage-99] | 2.56

Below: the item to evaluate.
Asked: Given the binder MDWCPKDLWDYCFA (cysteine pairing not given here; also: displayed on phage as fusion to pIII, linker not given here) [Phage-97] , what is its reported CD28 scFv signal?
Given back: 2.57
